The reported numbers originate from patent US4927820A.

Record form. Attribute: pIC50. Fill in for each entry.
In textbook form, pIC50 equals minus log to base ten of the concentration in mol/L.

Query: Provide pIC50, recorded with acetylcholinesterase (Homo sapiens, UniProt P22303), of Fc1ccc(C2Nc3c4c(nc5ccccc35)CCCC4O2)cc1 (centres unmarked)
Sequence (P22303 32-614): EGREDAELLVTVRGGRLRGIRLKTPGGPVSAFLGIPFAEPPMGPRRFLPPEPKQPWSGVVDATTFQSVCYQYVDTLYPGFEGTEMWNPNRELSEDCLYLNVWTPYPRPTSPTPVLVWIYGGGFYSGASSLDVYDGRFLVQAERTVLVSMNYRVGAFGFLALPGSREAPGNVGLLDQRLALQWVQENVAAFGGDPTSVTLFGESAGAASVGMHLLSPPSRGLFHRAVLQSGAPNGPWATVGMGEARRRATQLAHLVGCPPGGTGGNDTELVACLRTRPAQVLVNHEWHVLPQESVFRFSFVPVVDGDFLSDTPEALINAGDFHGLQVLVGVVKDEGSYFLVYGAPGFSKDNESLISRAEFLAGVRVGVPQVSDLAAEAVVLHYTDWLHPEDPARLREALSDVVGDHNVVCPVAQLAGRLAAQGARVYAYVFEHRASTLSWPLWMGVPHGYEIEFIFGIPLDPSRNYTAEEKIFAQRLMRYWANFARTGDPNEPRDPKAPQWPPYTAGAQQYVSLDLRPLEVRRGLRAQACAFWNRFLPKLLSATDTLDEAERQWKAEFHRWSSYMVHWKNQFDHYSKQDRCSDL
Response: 4.68

Query: For acetylcholinesterase (Homo sapiens, UniProt P22303), give pIC50 of the listed molecule: c1ccc(C2Nc3c4c(nc5ccccc35)CCCC4O2)cc1 (centres unmarked)
Response: 4.44
